experiment: method code SF, from Hansch, C. & Leo, A. (1987). Log P database [Dataset]. Pomona College Medicinal Chemistry Project.
measurement-label: logP
Give the value as a plain number.

stdin: Entry O=S1(=O)NC(c2cccs2)=Nc2ccccc21 has what logP?
stdout: 1.68

stdin: Again, but for N#Cc1ccco1
stdout: 0.96

stdin: Further, for COc1cccc(C=C(C(N)=O)C(N)=O)c1 ?
stdout: 0.01

stdin: Next record, please: O=NN1CCCCC1=O
stdout: -1.05

stdin: Now the molecule COC1OC(=O)c2ccccc21 (stereo not drawn)
stdout: 1

stdin: One more molecule: CC(C)Oc1cn[nH]c1
stdout: 1.13

stdin: Further, for CC(=O)Nc1ccccc1C#N ?
stdout: 0.57

stdin: Next molecule: Cc1ccc(OC(=O)CNC(=O)c2ccccc2)cc1
stdout: 2.83

----------
assay: method code SF, from Hansch, C. & Leo, A. (1987). Log P database [Dataset]. Pomona College Medicinal Chemistry Project.
measurement-label: logP
The response must contain the number and no unit.

stdin: What does the record list as logP for CCC1(c2ccccc2)CCC(=O)NC1=O (stereo not drawn) ?
stdout: 1.9

stdin: Param item: CCNC(=S)Nc1ccccc1
stdout: 1.42

stdin: Also need CCOC(=O)C(=Cc1cccc(OC)c1)C(=O)OCC , thanks.
stdout: 3.18

stdin: Cool, now O=C(O)COc1ccccc1O
stdout: 0.85

stdin: Check c1ccc2c(c1)Cc1ccccc1C2 too.
stdout: 4.25

stdin: Now consider CC(=O)N(C)/N=N/c1ccc(C)cc1 and answer again.
stdout: 3.23

stdin: Moving on to CO[C@H]1C=CO[C@@]2(C)Oc3c(C)c(O)c4c(O)c(c(CN5CCN(C)CC5)c(O)c4c3C2=O)NC(=O)/C(C)=C\C=C/[C@@H](C)[C@@H](O)[C@@H](C)[C@H](O)[C@H](C)[C@@H](OC(C)=O)[C@H]1C
stdout: 1.76

stdin: Again, but for CCOC(=O)/C(=C/c1ccc(OC)c(OC)c1)C(C)=O
stdout: 2.02

stdin: Continue with CC(C)(C)C(=O)Nc1ccccc1
stdout: 1.99

stdin: Now consider O[C@@H]1CCCC[C@H]1O and answer again.
stdout: 0.08

stdin: Same thing, different compound: Cc1nn(-c2ccccc2)c(C)c1N=O
stdout: 2.28

stdin: Now consider CC=NO and answer again.
stdout: -0.13

stdin: Item: FC(F)(F)c1cccc2cccnc12
stdout: 2.5

----------
experiment: method code SF, from Hansch, C. & Leo, A. (1987). Log P database [Dataset]. Pomona College Medicinal Chemistry Project.; details: pH 1.0
Assign logD to each entry below.
Just the number.

stdin: # get_value(readout='logD', item= CS(=O)(=O)F )
stdout: 0.55

stdin: What about this compound? COC(=O)c1ccccc1C(=O)O
stdout: 1.13

stdin: And the next one, O=C(O)c1ccccc1-c1ccccc1 ?
stdout: 2.89

stdin: Subsequent entry: Oc1cc(-c2ccccc2)on1
stdout: 2.55

stdin: Likewise for CCc1ccccc1OCC(=O)O ?
stdout: 2.53

stdin: Please give the result for N#Cc1c[nH]c(=O)[nH]c1=O too.
stdout: -0.93

stdin: Next record, please: CCCN(CCC)S(=O)(=O)c1ccc(C(=O)O)cc1
stdout: 3.21

stdin: What do you have for O=C(O)C(CO)c1ccccc1 (stereo not given) ?
stdout: 0.77

stdin: Param item: O=C(O)C(c1ccccc1)c1ccccc1
stdout: 3.09

stdin: For O=C(O)c1cccc([N+](=O)[O-])c1C(=O)O then?
stdout: 0.75

stdin: COc1ccccc1OCC(=O)O , same question.
stdout: 0.98

stdin: Can you handle NS(=O)(=O)c1ccc(C(=O)O)cc1 next?
stdout: 0.5

stdin: Do the same for CC(=O)c1ccccc1C(=O)O please
stdout: 0.81

stdin: Request: O=C(O)COc1ccccc1F
stdout: 1.39

stdin: Entry O=C(O)CSc1ccccc1 please
stdout: 1.88

stdin: Thanks! And O=C(O)c1ccccc1S ?
stdout: 2.39

stdin: Another compound to look at: CC(=O)c1c(O)oc(=O)c(/C(C)=N/c2ccccc2)c1O
stdout: 2.58

stdin: Record: O=C(O)c1ccccc1Oc1ccccc1
stdout: 3.11

stdin: Another compound to check: O=C(O)CNC(=O)c1ccccc1
stdout: 0.31

stdin: Consider next the compound O=C(O)c1ccccc1-c1ccccc1C(=O)O in the same way.
stdout: 2.07
